Test System: Carbonic anhydrase 2 (Homo sapiens, UniProt P00918)
Reported Endpoint: Ki

Problem: Requested field: Ki. Item: CC(=O)n1cc(/C=C2/N=C(c3ncccn3)N(c3ccc(S(N)(=O)=O)cc3)C2=O)c2ccccc21
Solution: > 10 µM

----------
Test System: Mitogen-activated protein kinase 14 (Homo sapiens, UniProt Q16539)
Sequence (Q16539 whole entry): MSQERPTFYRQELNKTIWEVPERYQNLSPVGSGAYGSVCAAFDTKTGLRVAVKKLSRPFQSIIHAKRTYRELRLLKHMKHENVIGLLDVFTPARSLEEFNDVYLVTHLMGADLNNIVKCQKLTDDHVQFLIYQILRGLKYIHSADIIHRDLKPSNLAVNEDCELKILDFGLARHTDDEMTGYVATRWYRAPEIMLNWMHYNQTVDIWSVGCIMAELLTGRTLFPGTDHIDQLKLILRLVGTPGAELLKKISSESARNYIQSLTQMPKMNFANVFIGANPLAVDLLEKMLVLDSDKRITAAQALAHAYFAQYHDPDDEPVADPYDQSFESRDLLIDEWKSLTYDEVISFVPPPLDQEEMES
Assay Overview: Inhibition of p38alphaMAPK (unknown origin)
Reported Endpoint: pIC50
Numbers only, as −log10 of the molar value.

Problem: Form field: reported pIC50 of COc1ccc(C2=N/C(=C/c3ccc(O)cc3)C(=O)N2c2ccc(S(N)(=O)=O)cc2)cc1
Solution: 6.85

----------
Measured Ki on Carbonic anhydrase 4 (Homo sapiens, UniProt P22748) follows.
Sequence (P22748 whole entry): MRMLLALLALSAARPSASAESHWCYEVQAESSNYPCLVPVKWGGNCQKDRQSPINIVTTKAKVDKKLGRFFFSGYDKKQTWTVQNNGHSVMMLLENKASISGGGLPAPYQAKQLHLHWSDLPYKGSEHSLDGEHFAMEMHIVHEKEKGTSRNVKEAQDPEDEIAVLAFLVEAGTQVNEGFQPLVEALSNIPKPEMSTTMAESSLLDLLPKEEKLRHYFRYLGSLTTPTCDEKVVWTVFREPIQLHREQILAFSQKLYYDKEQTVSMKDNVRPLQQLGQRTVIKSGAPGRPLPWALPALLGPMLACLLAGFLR
Answers are plain numbers, in nM.

# Smiles Repr, Ki (nM)
records = [
    ("COc1ccc(C2=N/C(=C/c3ccc(O)cc3)C(=O)N2c2ccc(S(N)(=O)=O)cc2)cc1", 6.9),
]

Moving on to another molecule below.
Problem: Dear colleague, I am looking for the recorded Ki of the following molecule: CC(=O)n1cc(/C=C2/N=C(c3ccccc3)N(c3ccc(S(N)(=O)=O)cc3)C2=O)c2ccccc21
Solution: 263

----------
Test System: Carbonic anhydrase 1 (Homo sapiens, UniProt P00915)
Sequence (P00915 whole entry): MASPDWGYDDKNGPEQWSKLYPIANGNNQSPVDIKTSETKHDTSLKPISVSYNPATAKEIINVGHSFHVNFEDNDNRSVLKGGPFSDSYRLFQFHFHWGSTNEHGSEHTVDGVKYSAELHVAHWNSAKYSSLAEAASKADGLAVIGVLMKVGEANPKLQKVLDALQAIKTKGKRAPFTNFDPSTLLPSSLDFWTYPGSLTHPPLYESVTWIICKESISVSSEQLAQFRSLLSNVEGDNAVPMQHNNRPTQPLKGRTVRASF
Reported Endpoint: pKi
Give bare numbers, as −log10 of the molar value.

Problem: Which pKi is listed for COc1ccc(C2=N/C(=C/c3ccc(O)cc3)C(=O)N2c2ccc(S(N)(=O)=O)cc2)cc1 ?
Solution: 7.02
